Listing: viability change, negative = cytotoxic of selected molecules
Assay text: qHTS assay to identify small molecule antagonists of the sonic hedgehog signaling (Shh) pathway - cell viability counter screen (AID 1259367); further: on the % scale 0 is the no-effect control and ±100 the full control effect; nearly all actives have a fitted effect of over 55% in size
Conditions: NIH/3T3 Gli1-Luc viability, CellTiter-Fluor, 24 h; series mostly up to 92.4 µM
Inconclusive results are not listed. Activity calls are given as the source filed them. The call rests on the fitted dose curve; in most records, active means well fitted cell-killing curve with a large enough effect in the repeat runs; inconclusive means weak or mixed curves, or effect the other way; inactive means no such curve, though single readings can be large or run the other way.

| Molecule | viability change, negative = cytotoxic |
| --- | --- |
| CCC(=O)CC(C)CC (centres undefined) | 2.54% [at 0.349 µM] (inactive) |
| CCCCCCCCCCCCCCCCCO | 5.3% [at 19 µM] (inactive) |
| O=S(O)O | 0.928% [at 19 µM] (inactive) |
| CCN1CCN(c2cc(-c3ccc(F)cc3)c3c(n2)CCCCCC3)CC1 | -5.57% [at 19 µM] (inactive) |

###

Tested on: Estrogen receptor (Homo sapiens) (UniProt P03372)
Sequence (P03372 whole entry, looked up): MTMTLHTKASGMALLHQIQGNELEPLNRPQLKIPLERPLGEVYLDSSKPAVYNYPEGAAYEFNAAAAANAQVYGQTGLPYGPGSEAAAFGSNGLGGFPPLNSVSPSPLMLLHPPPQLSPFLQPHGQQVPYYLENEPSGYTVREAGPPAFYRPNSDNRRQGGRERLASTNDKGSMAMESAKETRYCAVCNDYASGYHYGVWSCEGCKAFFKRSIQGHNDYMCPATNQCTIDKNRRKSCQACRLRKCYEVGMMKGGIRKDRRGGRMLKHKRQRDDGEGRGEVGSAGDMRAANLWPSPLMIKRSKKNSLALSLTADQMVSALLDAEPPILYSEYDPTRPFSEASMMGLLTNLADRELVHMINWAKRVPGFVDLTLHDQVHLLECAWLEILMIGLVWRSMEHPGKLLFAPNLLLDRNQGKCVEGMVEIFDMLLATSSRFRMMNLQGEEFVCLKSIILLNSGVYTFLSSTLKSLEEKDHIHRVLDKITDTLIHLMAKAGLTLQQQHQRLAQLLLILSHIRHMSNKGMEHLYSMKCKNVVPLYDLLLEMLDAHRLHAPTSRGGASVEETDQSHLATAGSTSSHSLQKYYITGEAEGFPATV
Assay text: qHTS assay to identify small molecule agonists of the estrogen receptor alpha (ER-alpha) signaling pathway (AID 743075);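 further: HEK293 GripTite cells with ER-alpha and UAS-driven beta-lactamase reporter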
Conditions: HEK293 ER-alpha-UAS-bla, beta-lactamase FRET ratio, 18 h; series mostly up to 70.1 µM
Results filed as inconclusive are left out. The source made the active and inactive calls. Calls follow the shape of the full dose curve.
Possible outcomes: active, inactive

| Compound | Label |
| --- | --- |
| CCOC(=O)N1CCC(=C2c3ccc(Cl)cc3CCc3cccnc32)CC1 | inactive |
| CCCCCCCCCCCCCCCC | inactive |
| CCc1cccc(C)c1 | inactive |
| O=C1NC2CCCCN2C12CCN(CCCN1c3ccccc3CCc3ccc(Cl)cc31)CC2 (configuration not stated) | inactive |
| CC(CN(C)C)CN1c2ccccc2CCc2ccccc21 (configuration not stated) | inactive |
| C[C@@]12C(=O)OC(=O)[C@]1(C)C1CCC2O1 | inactive |
| c1ccc(Sc2ccccc2)cc1 | inactive |
| CCN(CC)CCCN(c1ccccc1)C1Cc2ccccc2C1 | inactive |
| CCCCNc1c(C(=O)OCC)c(C)nc2c1cnn2CC | inactive |
| CC(C(O)c1ccccc1)N(C)CCOC(c1ccccc1)c1ccccc1 (configuration not stated) | inactive |
| O=C(c1ccccc1)c1cc(Cl)ccc1O | active |
| Cc1oc(-c2ccccc2)nc1CCOc1ccc(C[C@H](Nc2ccccc2C(=O)c2ccccc2)C(=O)O)cc1 | inactive |

###

Assay text: qHTS assay for small molecule agonists of the antioxidant response element (ARE) signaling pathway - cell viability counter screen (AID 743203); further: nearly all actives have a fitted effect of over 55% in size
Conditions: ARE-bla HepG2 viability, CellTiter-Glo luminescence, 16 h; series mostly up to 73.3 µM
Inconclusive results are not listed. Active and inactive are the calls of the source. Calls follow the shape of the full dose curve.
Possible outcomes: yes (active), no (inactive)

| Molecule | Label |
| --- | --- |
| Nc1cc(Cl)c([N+](=O)[O-])cc1O | no |
| C=C(c1ccc(C(=O)O)cc1)c1cc2c(cc1C)C(C)(C)CCC2(C)C | yes |
| COC(=O)[C@]1(C)CCC[C@@]2(C)[C@H]1CC=C1C=C(C(C)C)CC[C@@H]12 | no |
| O=C1Nc2ccc(Cl)cc2[C@@](C#CC2CC2)(C(F)(F)F)O1 | no |
| COCC(=O)O[C@]1(CCN(C)CCCc2nc3ccccc3[nH]2)CCc2cc(F)ccc2[C@@H]1C(C)C | yes |
| C(=C/c1ccccc1)/c1ccccc1 | no |
| O=Nc1ccc(NO)cc1 | no |
| C[n+]1c2cc(N)ccc2cc2ccc(N)cc21 (tested in a mixture with another compound) | no |
| CC(C)(C)CC(C)(C)c1ccccc1O | yes |
| CCCOc1sc(C(=O)N2CCC(c3cc(CN)ccc3F)CC2)c(C)c1Br | yes |
| CC(C)N=C(N)/N=C(\N)Nc1ccc(Cl)cc1 | no |

###

Tested on: Nuclear receptor subfamily 1 group I member 3 (Homo sapiens) (UniProt Q14994)
Sequence (Q14994 whole entry, looked up): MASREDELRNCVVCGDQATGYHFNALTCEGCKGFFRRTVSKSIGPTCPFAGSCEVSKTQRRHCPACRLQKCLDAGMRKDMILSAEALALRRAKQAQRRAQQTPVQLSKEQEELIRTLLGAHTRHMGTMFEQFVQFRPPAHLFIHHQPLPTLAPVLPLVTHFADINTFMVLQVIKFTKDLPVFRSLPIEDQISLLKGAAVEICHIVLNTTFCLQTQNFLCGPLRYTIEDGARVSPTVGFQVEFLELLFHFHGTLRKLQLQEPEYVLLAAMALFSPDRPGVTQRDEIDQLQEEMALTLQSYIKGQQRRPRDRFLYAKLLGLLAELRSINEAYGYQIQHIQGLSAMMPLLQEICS
Assay text: qHTS assay to identify small molecule antagonists of the constitutive androstane receptor (CAR) signaling pathway (AID 1224838);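 further: HepG2 cells stably expressing hCAR with CYP2B6 luciferase reporter stimulated by CITCO; nearly all actives have a fitted effect of over 40% in size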
Conditions: HepG2-CYP2B6-hCAR luciferase, CITCO-stimulated, 24 h; series mostly up to 92.4 µM
Results filed as inconclusive are left out. Calls of active or inactive are those of the source. The call rests on the fitted dose curve; in most records, active means well fitted inhibition curve with a large enough effect in the repeat runs; inconclusive means weak or mixed curves, or effect the other way; inactive means no such curve, though single readings can be large or run the other way.
Outcome codes: 1 (active), 0 (inactive)

| Compound | Label |
| --- | --- |
| CCN(CC)c1ccc(N)cc1 | 1 |
| CN1CCN(C2Cc3ccccc3Sc3ccc(Cl)cc32)CC1 (stereo not drawn) | 0 |
| CC1(C)C(=O)N(Br)C(=O)N1Br | 0 |
| CCc1c(Br)c(Br)c(Br)c(Br)c1Br | 0 |
| C=C[C@](C)(O)CC[C@@H]1[C@@]2(C)CCCC(C)(C)[C@@H]2CC[C@@]1(C)O | 0 |
| CCCCCCS | 0 |
| CN(C)CCN1CCOCC1 | 0 |
| CCOC(=O)N1CCC(=C2c3ccc(Cl)cc3CCc3cccnc32)CC1 | 0 |
| COc1ccccc1C=O | 0 |
| Brc1ccccc1-c1ccccc1 | 0 |
| CCCC(=O)OCC(COC(=O)CCC)OC(=O)CCC | 0 |
| CCCCN(CCCC)CCC(O)c1cc2c(Cl)cc(Cl)cc2c2cc(C(F)(F)F)ccc12 (stereo not drawn) | 0 |
| CCCCCCCC/C=C/CCCOC(C)=O | 0 |

###

Assay text: qHTS assay to identify small molecule agonists of the RXR signaling pathway - cell viability counter screen (AID 1159529); further: nearly all actives have a fitted effect of over 50% in size
Conditions: RXR-alpha-bla HEK293T viability, CellTiter-Glo, 16 h; series mostly up to 76.8 µM
Records with an inconclusive call do not appear. Active and inactive are the calls of the source. Calls follow the shape of the dose curve; as a rule, active = well fitted cell-killing curve with a large enough effect in the repeat runs; inconclusive = weak or mixed curves, or effect the other way; inactive = no such curve, though single readings can be large or run the other way.
Possible outcomes: true = active, false = inactive

| Molecule | Label |
| --- | --- |
| CCCCCCCCCCCC(=O)N(CC)CC | false |
| OCCCCl | false |
| OCCC(O)CO (stereo not drawn) | false |
| CCN(CC)CCOc1ccc(C(O)(Cc2ccc(Cl)cc2)c2ccc(C)cc2)cc1 (stereo not drawn) | true |
| CCCCCCCCCC(=O)N(C)C | false |
| O=C1OC(OC(=O)c2cccnc2Nc2cccc(C(F)(F)F)c2)c2ccccc21 (stereo not drawn) | false |
| CC1(C)C(=O)N(CO)C(=O)N1CO | false |
| O=C1NCN(c2ccccc2)C12CCN(CCCC(c1ccc(F)cc1)c1ccc(F)cc1)CC2 | true |
| C=C1C(C)(C)[C@@]2(Cl)C(Cl)[C@]1(Cl)C(Cl)(Cl)C2(Cl)Cl (stereo partly drawn) | true |
| CCOC(OCC)C(=O)c1ccccc1 | false |
| CCOC(=O)CC(C)O (stereo not drawn) | false |
| C/C=C/C(=O)Oc1c(CCCCCC(C)C)cc([N+](=O)[O-])cc1[N+](=O)[O-] | true |
| CC1=CCC(=O)O1 | false |

###

Tested on: Voltage-gated inwardly rectifying potassium channel KCNH2 (Homo sapiens) (UniProt Q12809)
Sequence (Q12809 whole entry, looked up): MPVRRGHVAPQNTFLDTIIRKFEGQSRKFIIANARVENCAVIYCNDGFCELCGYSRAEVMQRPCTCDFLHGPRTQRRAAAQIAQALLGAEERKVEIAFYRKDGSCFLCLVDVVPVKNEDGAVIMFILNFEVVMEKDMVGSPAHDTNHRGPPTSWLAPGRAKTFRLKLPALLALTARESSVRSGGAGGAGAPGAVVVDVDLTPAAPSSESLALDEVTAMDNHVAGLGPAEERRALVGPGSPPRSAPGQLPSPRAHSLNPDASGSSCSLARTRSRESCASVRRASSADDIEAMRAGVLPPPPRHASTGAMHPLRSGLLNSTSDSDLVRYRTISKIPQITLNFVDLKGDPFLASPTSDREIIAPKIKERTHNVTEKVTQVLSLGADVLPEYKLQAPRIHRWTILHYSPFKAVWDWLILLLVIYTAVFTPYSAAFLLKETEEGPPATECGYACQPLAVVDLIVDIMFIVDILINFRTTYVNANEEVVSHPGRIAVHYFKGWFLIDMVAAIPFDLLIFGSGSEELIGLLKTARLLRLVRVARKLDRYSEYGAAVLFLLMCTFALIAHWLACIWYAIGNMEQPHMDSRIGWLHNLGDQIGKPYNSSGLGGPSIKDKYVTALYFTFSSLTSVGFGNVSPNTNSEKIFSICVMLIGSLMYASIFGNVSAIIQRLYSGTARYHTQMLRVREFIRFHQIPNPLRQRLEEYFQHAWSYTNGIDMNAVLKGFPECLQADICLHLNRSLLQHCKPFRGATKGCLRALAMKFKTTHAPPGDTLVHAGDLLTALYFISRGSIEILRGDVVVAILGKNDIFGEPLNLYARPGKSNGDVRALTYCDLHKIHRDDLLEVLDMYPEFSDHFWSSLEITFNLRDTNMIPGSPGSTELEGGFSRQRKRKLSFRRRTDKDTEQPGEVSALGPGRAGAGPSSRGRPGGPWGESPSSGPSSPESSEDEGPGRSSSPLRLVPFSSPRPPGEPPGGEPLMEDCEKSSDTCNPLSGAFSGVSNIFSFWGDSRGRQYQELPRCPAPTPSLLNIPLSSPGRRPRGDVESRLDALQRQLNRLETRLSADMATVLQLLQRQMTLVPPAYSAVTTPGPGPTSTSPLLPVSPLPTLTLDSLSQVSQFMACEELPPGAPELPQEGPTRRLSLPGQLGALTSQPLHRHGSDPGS
Assay text: Human Ether-a-go-go-Related Gene (hERG) channel small molecule antagonists: fluorescence cell-based qHTS assay (AID 1671200); further: nearly all actives have a fitted effect of over 50% in size
Conditions: hERG-U2OS cells, FluxOR thallium flux fluorescence; series mostly up to 76.8 µM
Results filed as inconclusive are left out. The source made the active and inactive calls. Calls come from the whole dose curve; as a rule, active = well fitted inhibition curve with a large enough effect in the repeat runs; inconclusive = weak or mixed curves; inactive = flat fitted curve, though single readings scatter.
Possible outcomes: 1.0 (active), 0.0 (inactive)

| Compound | Label |
| --- | --- |
| CCCCCCCCC(C)=O | 0.0 |
| CC(C)c1cccc(C(C)C)c1N1C(=O)c2ccc(O)cc2C1=O | 0.0 |
| C=CC(=C)CCC=C(C)C | 0.0 |
| CC(COC(=O)c1ccccc1)OC(=O)c1ccccc1 (stereo not given) | 1.0 |
| Clc1cc(Cl)c(-c2c(Cl)c(Cl)cc(Cl)c2Cl)cc1Cl | 0.0 |
| O=CC1CC1 | 0.0 |
| CC(C)=CCCC(C)CCOC(=O)C(C)C (stereo not given) | 0.0 |
| CC(=O)c1ccccc1N | 0.0 |
| CCOC(OCC)C(=O)c1ccccc1 | 0.0 |
| COC(=O)[C@]1(C)CCC[C@@]2(C)[C@H]1CC=C1C=C(C(C)C)CC[C@@H]12 | 0.0 |
| C[Si](C)(C)Cl | 0.0 |
| CCCCN(C)C | 0.0 |
| CCN(CC)c1cccc(C)c1 | 0.0 |
| CCOC(=O)[C@@](C)(N)Cc1ccc(O)c(O)c1 | 0.0 |
| O=C(NO)c1ccccc1 | 0.0 |

###

Assay text: qHTS assay to identify small molecule agonists of the AP-1 signaling pathway (AID 1159526); further: on the % scale 0 is the no-effect control and ±100 the full control effect
Conditions: ME-180 (cervical carcinoma) AP-1-bla reporter, beta-lactamase FRET ratio, 5 h; series mostly up to 76.8 µM
Results filed as inconclusive are left out. Activity calls are given as the source filed them. Calls come from the whole dose curve.

| Molecule | activation |
| --- | --- |
| CC(C)CCOCCC(C)C | inactive |
| O=C(O)CC(=O)O | inactive |
| CCCCCCCCCCCCCCCC | inactive |
| Cc1cn[nH]c1 | inactive |
| NCCCC(O)(P(=O)(O)O)P(=O)(O)O | inactive |
| OCCCS | inactive |
| CCCCOC(=O)C(C)CC (configuration not stated) | inactive |
| O=C=NCc1cccc(CN=C=O)c1 | -14% [at 15.8 µM] (inactive) |
| CCCCCCS | inactive |
| CC1CNCC(C)O1 (configuration not stated) | inactive |
| CCNc1nc(NC(C)CC)nc(OC)n1 (configuration not stated) | inactive |
| C[C@H]1O[C@@H](O[C@H]2[C@@H](O)C[C@H](O[C@H]3[C@@H](O)C[C@H](O[C@H]4CC[C@@]5(C)[C@H](CC[C@@H]6[C@@H]5C[C@@H](O)[C@]5(C)[C@@H](C7=CC(=O)OC7)CC[C@]65O)C4)O[C@@H]3C)O[C@@H]2C)C[C@H](O)[C@@H]1O | inactive |
| CCC(=O)CC(C)CC (configuration not stated) | -5.51% [at 0.29 µM] (inactive) |
| CC(=O)OC1CCCCC1 | inactive |
| CCOC(=O)COc1ccc(C)cc1 | inactive |
| O=c1cccc[nH]1 | inactive |
| Cn1cccc1 | inactive |
| C=C(C)CCCC | inactive |
| c1ccc2c(c1)CCC2 | inactive |
| CCc1c(C(=O)O)c(=O)cnn1-c1ccc(Cl)cc1 | inactive |
| CC1=CCC(=O)O1 | inactive |
| C/C=C/C(=O)C1=C(C)CCCC1(C)C | inactive |
| CCCCCCCOC(=O)c1ccccc1C(=O)OCCCCCCC | inactive |
| CC(=O)C=O | inactive |
| Clc1cccnc1 | inactive |
| CCCSS/C(CCO)=C(\C)N(C=O)Cc1cnc(C)nc1N | inactive |
| CCOC(/C=C(\C)CCC=C(C)C)OCC | inactive |
| Cc1cc(=O)[nH]c(=O)[nH]1 | inactive |
| C=C/C=C/C=C/CCCCC | 2.42% [at 15.8 µM] (inactive) |
| CCCCCCCCCCCCCCCCCO | -5.53% [at 15.8 µM] (inactive) |
| CCCCCCCC(=O)OCC | inactive |
| O=S(O)O | 2.22% [at 15.8 µM] (inactive) |
